Test system: C. glabrata
Assay type: cell-based, Candida glabrata
assay-context: 48 h
Where a SMILES comes first, the peptide text is derived from it.
readout-label: MIC 90

molecule	recorded-measurement
CC(C)[C@H](NC(=O)[C@H](Cc1ccccc1)NC(=O)[C@H](CCCCN)NC(=O)C1(NC(=O)[C@H](Cc2c[nH]c3ccccc23)NC(=O)[C@H](CCCNC(=N)N)NC(=O)[C@@H](Cc2ccc3ccccc3c2)NC(=O)[C@@H](N)Cc2c[nH]cn2)CCC1)C(N)=O [Peptide 5] (HELM PEPTIDE1{H.[O=C([C@@H](Cc1ccc2ccccc2c1)N[*:1])[*:2]].R.W.[O=C(C1(N[*:1])CCC1)[*:2]].K.F.V.[am]}$$$$V2.0)	>100 µM
CC(C)[C@H](NC(=O)[C@H](Cc1ccccc1)NC(=O)[C@H](CCCCN)NC(=O)C1(NC(=O)[C@H](Cc2c[nH]c3ccccc23)NC(=O)[C@H](CCCNC(=N)N)NC(=O)[C@@H](Cc2ccc3ccccc3c2)NC(=O)[C@@H](N)Cc2c[nH]cn2)CCCCC1)C(N)=O [Peptide 7] (HELM PEPTIDE1{H.[O=C([C@@H](Cc1ccc2ccccc2c1)N[*:1])[*:2]].R.W.[O=C(C1(N[*:1])CCCCC1)[*:2]].K.F.V.[am]}$$$$V2.0)	>100 µM
